target: Tyrosine-protein kinase Lyn (Homo sapiens) (UniProt P07948); conditions: at 0.1 µM;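 also: mean inhibition of the LYN B splice variant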
Sequence (P07948 2-512 limits assumed): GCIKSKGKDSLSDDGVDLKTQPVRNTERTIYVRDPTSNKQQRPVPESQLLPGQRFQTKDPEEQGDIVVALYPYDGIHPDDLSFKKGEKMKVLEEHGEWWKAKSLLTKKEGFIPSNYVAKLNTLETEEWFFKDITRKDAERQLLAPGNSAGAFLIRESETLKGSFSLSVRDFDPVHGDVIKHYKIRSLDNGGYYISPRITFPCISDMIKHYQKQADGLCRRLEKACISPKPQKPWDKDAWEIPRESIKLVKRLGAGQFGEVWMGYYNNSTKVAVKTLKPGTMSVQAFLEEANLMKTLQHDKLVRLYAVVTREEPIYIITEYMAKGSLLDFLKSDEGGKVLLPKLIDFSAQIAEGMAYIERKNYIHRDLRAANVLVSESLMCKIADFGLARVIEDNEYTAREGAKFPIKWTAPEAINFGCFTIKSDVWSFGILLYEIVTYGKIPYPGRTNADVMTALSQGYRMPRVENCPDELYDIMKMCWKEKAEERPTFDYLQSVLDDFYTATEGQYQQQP
Description: GSK_PKIS: LYN B (splice variant) mean inhibition at 0.1 uM [Nanosyn]
Consider the following compounds; for each one, report its inhibition.
Answers are plain numbers, in %.

Record excerpt, results attached:
>  <smiles str>
COc1cc(/C=N/Nc2ncnc3c2cnn3C(C)C)ccc1O

>  <inhibition / %>
11.2

$$$$
>  <smiles str>
CN(C)c1cc2c(Nc3ccc4c(cnn4Cc4ccccc4)c3)ncnc2cn1

>  <inhibition / %>
2.82

$$$$
>  <smiles str>
Cc1ccc(Nc2ccnc(Nc3cccc(C(N)=O)c3)n2)cc1O

>  <inhibition / %>
56.5

$$$$
>  <smiles str>
COc1cc2ncn(-c3cc(OCc4ccccc4S(C)(=O)=O)c(C#N)s3)c2cc1OC

>  <inhibition / %>
15.1

$$$$
>  <smiles str>
Nc1nccc(-c2c(-c3ccc(F)cc3)ncn2CCCN2CCOCC2)n1

>  <inhibition / %>
2.71

$$$$
>  <smiles str>
COc1ccc2ncnc(Nc3ccc(OCc4ccccc4)cc3)c2c1

>  <inhibition / %>
1.2

$$$$
>  <smiles str>
CC(C)c1ccc(Nc2nccc(-c3cnn4ncccc34)n2)cc1

>  <inhibition / %>
2.28

$$$$
>  <smiles str>
COc1cc2ncnc(Nc3ccc4c(cnn4Cc4ccccc4)c3)c2cc1OC

>  <inhibition / %>
7.01

$$$$

Quick one: give me inhibition for each item below, same order please.
1. NS(=O)(=O)c1ccc(N/N=C2\C(=O)Nc3ccc(Cl)cc32)cc1
2. ON=C1CCc2cc(-c3nc(C4CCNCC4)[nH]c3-c3ccncc3)ccc21
3. CCn1c(-c2nonc2N)nc2c(C#CC(C)(C)O)nc(OCCNC)cc21
4. COC(=O)c1cncc(/C=C/c2c(C)cc(O)cc2C)c1
5. Cc1nc(-c2ccccc2)n2nc(NCCCN3CCOCC3)ncc12

Reply:
1. 1.56
2. -0.33
3. 2.97
4. 7.81
5. 2.14

Quick one: give me inhibition for each item below, same order please.
1. COC(=O)Nc1nc2cc(Oc3ccc(NC(=O)Nc4cccc(Br)c4)cc3)ccc2[nH]1
2. N#Cc1cccc(Nc2nccc(-c3cnn4ncccc34)n2)c1
3. [O-][S+]1CCN(Cc2ccc(-c3ccc4ncnc(Nc5ccc(OCc6ccccc6)c(Cl)c5)c4c3)o2)CC1
4. CN(c1ccc(NC(=O)Nc2ccc(OC(F)(F)F)cc2)cc1)c1ccnc(Nc2cccc(S(N)(=O)=O)c2)n1
5. COc1cc(Nc2nccc(-c3cnn4ncccc34)n2)cc(OC)c1
6. CCn1c(-c2nonc2N)nc2ccc(F)cc21

Reply:
7.97
4.82
-1.3
37.1
2.46
3.75

Quick one: give me inhibition for each item below, same order please.
1. CCS(=O)(=O)c1ccc(OC)c(Nc2nccc(N(C)c3ccc4c(C)n[nH]c4c3)n2)c1
2. C[C@@H](Oc1cc(-n2cnc3ccc(OC[C@@H](O)CO)cc32)sc1C(N)=O)c1ccccc1Cl

Reply:
1: 37.7; 2: -0.83

---

Consider the following compounds; for each one, report its inhibition.
target: Ribosomal protein S6 kinase alpha-2 (Homo sapiens); details: at 0.1 µM
Give bare numbers, in %.

>  <smiles str>
COc1cc(Nc2nccc(-c3cnn4ncccc34)n2)cc(OC)c1

>  <experimental target>
Ribosomal protein S6 kinase alpha-2 (Homo sapiens)

>  <inhibition (%)>
1.42

$$$$
>  <smiles str>
Nc1ccc(C#Cc2cncnc2Nc2ccc(OCc3cccc(F)c3)c(Cl)c2)cc1

>  <experimental target>
Ribosomal protein S6 kinase alpha-2 (Homo sapiens)

>  <inhibition (%)>
1.56

$$$$
>  <smiles str>
Nc1nccc(C#Cc2cncnc2Nc2ccc(OCc3cccc(F)c3)c(Cl)c2)n1

>  <experimental target>
Ribosomal protein S6 kinase alpha-2 (Homo sapiens)

>  <inhibition (%)>
2.21

$$$$
>  <smiles str>
Cc1ccc(O)cc1Nc1ccnc2ccc(S(C)(=O)=O)cc12

>  <experimental target>
Ribosomal protein S6 kinase alpha-2 (Homo sapiens)

>  <inhibition (%)>
3.52

$$$$
>  <smiles str>
COc1cc2ncnc(Nc3ccc4c(cnn4Cc4ccccc4)c3)c2cc1OC

>  <experimental target>
Ribosomal protein S6 kinase alpha-2 (Homo sapiens)

>  <inhibition (%)>
2.97

$$$$
>  <smiles str>
CC(C)c1ccc(Nc2nccc(-c3cnn4ncccc34)n2)cc1

>  <experimental target>
Ribosomal protein S6 kinase alpha-2 (Homo sapiens)

>  <inhibition (%)>
0.12

$$$$
>  <smiles str>
Cc1cc(-c2ccccn2)cc(C)c1/C=C/c1cncc(-c2nn[nH]n2)c1

>  <experimental target>
Ribosomal protein S6 kinase alpha-2 (Homo sapiens)

>  <inhibition (%)>
0.4

$$$$
>  <smiles str>
CN(C)C(=O)O[C@@H]1CN[C@@H](C#Cc2cc3ncnc(Nc4ccc(OCc5cccc(F)c5)c(Cl)c4)c3s2)C1

>  <experimental target>
Ribosomal protein S6 kinase alpha-2 (Homo sapiens)

>  <inhibition (%)>
0.12

$$$$
>  <smiles str>
COc1cccc(-n2ncc3c(N/N=C/c4ccc(C)cc4)ncnc32)c1

>  <experimental target>
Ribosomal protein S6 kinase alpha-2 (Homo sapiens);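 also: reported value is the mean percent inhibition of RSK3, from the GSK PKIS screening panel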

>  <inhibition (%)>
3.75

$$$$

In the following, a different compound is considered.
Query: For the compound c1ccc(Cc2nc3ccc(Nc4ncnc5ccccc45)cc3[nH]2)cc1 , what inhibition is on record?
Reply: 1.07
